Test system: Eotaxin-3 (CCL26) release
Test: Human Whole Blood Eotaxin-3 Assay (IL-4 stimulated)
Format: cell-based
Conditions: Homo sapiens; geometric mean across assay runs and compound batches; EC50 provided for test compounds with >80% Emax
Could you mark each record met if its EC50 falls strictly under 70 nM, and not met if it equals or exceeds it?

Reference set (4 entries):
{"compound": "CNc1ccn(-c2ccnc3c2cc([C@H](C)N2CC=C(c4c(C)cc(C(=O)N5CCC(CN6CCN(c7ncc(NC8CCC(=O)NC8=O)cc7F)C[C@H]6C)CC5)cc4F)CC2)n3C)c(=O)c1 (some centres unmarked) [Example 2g113]", "study.target": "Eotaxin-3 (CCL26) release", "answer.label": "met"}
{"compound": "Cn1c(CN2CCC(c3c(F)cc(C(=O)N4CCC(CN5CCN(c6ccc(NC7CCC(=O)NC7=O)cc6F)CC5)CC4)cc3F)CC2)cc2c(-n3ccc4c(c3=O)CCN4)ccnc21 (centres unmarked) [Example 2g35]", "study.target": "Eotaxin-3 (CCL26) release", "answer.label": "not met"}
{"compound": "CNc1ccn(-c2ccnc3c2cc(CN2CCC(c4c(F)cc(C(=O)N5CCC(CN6CCN(c7ccc(N[C@H]8CCC(=O)NC8=O)cc7F)CC6)CC5)cc4F)CC2)n3C)c(=O)c1 (single isomer, unassigned) [Example 2g58]", "study.target": "Eotaxin-3 (CCL26) release", "answer.label": "not met"}
{"compound": "CNc1ccn(-c2ccnc3c2cc([C@H](C)N2CC=C(c4c(C)cc(C(=O)N5CCn6c(nnc6C6CCN(Cc7ccc(NC8CCC(=O)NC8=O)c(OC)c7)CC6)C5)cc4F)CC2)n3C)c(=O)c1 (some centres unmarked) [Example 2g9]", "study.target": "Eotaxin-3 (CCL26) release", "answer.label": "not met"}

// next entry
Prompt: Say whether its EC50 is strictly beneath 70 nM. Entry: CNc1cc(=O)n(-c2ccnc3c2cc(CN2CCC(c4c(F)cc(C(=O)N5CCn6nc(CN7CCC(c8ccc(N[C@H]9CCC(=O)NC9=O)c(OC)c8)CC7)cc6C5)cc4F)CC2)n3C)cc1F (single isomer, unassigned) [Example 2g123]
Response: met
